observed_property: melting point

Worked cases, answers included:
COCCOc1cc2ncc(C#N)c(Nc3cc(OC)c(OC)c(OC)c3)c2cc1OC
188 to 190 °C
COc1cc2c(Nc3ccc(Oc4cccnc4)cc3)c(C#N)cnc2cc1OCC1CCN(C)CC1
182 to 184 °C
COCCNc1cc2ncc(C#N)c(Nc3cc(OC)c(Cl)cc3Cl)c2cc1OC
165 to 166 °C
COCCOc1cc2ncc(C#N)c(Nc3cc(OC)c(C)cc3C)c2cc1OC
143 to 145 °C
COc1cc2c(Nc3ccc(Sc4nccn4C)c(Cl)c3)c(C#N)cnc2cc1NCCCN(C)C
198 to 200 °C
CCCCNc1c(C#N)cnc2cc(OCCOC)c(OC)cc12
99 to 102 °C
COc1cc2c(Nc3ccc(Sc4nccn4C)c(Cl)c3)c(C#N)cnc2cc1N1CCN(C)CC1
270 to 272 °C
COCCOc1cc2c(Nc3cc(OC)c(Cl)cc3Cl)c(C#N)cnc2cc1OCC1CCN(C)CC1
153 to 155 °C
COCCOc1cc2ncc(C#N)c(Nc3cc(OC)ccc3Cl)c2cc1OC
179 to 181 °C
COc1cc(Nc2c(C#N)cnc3cc(NCCCN(C)C)c(OC)cc23)c(Cl)cc1Cl
165 to 167 °C

Item "COCCOc1cc2ncc(C#N)c(Nc3cc(OC)c(Cl)cc3Cl)c2cc1OCCN1CCOCC1" has what recorded melting point?
158 to 159 °C

Name the reported melting point value associated with the compound "CCCCOc1cc2c(Nc3cc(OC)c(Cl)cc3Cl)c(C#N)cnc2cc1OCCOC"
166 to 167 °C

May I ask what melting point has been recorded for "COc1cc(Nc2c(C#N)cnc3cc(NCCCC4CCN(C)CC4)c(OC)cc23)c(Cl)cc1Cl" ?
122 to 124 °C

Form field: reported melting point of COc1cc(Nc2c(C#N)cnc3cc(OCC4CCCCO4)c(OC)cc23)c(Cl)cc1Cl (centres unmarked)
193 to 196 °C

Entry under review: "COc1cc(Nc2c(C#N)cnc3cc(OCc4cccs4)c(OC)cc23)c(Cl)cc1Cl" . Reported melting point?
194 to 196 °C

Which melting point is reported for this compound? "COCCOc1cc2ncc(C#N)c(NC3CCCC3)c2cc1OC"
87 to 90 °C

Report melting point for "COc1cc(Nc2c(C#N)cnc3cc(N(C)CCCN(C)C)c(OC)cc23)c(Cl)cc1Cl" please.
116 to 117 °C
